Biological target: Thromboxane A2 receptor (Homo sapiens)
Sequence (P21731 whole entry): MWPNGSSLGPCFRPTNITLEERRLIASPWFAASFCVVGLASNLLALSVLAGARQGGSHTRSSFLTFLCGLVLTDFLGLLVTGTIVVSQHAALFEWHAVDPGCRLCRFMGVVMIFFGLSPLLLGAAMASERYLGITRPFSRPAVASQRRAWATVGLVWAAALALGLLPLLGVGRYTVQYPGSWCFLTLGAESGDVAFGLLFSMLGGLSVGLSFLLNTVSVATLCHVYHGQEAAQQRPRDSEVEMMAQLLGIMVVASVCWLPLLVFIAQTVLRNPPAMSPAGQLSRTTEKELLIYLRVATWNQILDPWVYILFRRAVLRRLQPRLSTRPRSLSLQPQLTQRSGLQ
Experiment: In vitro thromboxane A2 receptor antagonism through inhibition of U-46619-induced platelet aggregation in human whole blood
Assay type: functional, tissue-based
Conditions: read-out: pA2 (converted)
# key: entry, value: Kb
Output spec: scalar in nM, unitless text.

Field: example entries. Status: answers known.
O=C(O)CC/C=C\CO[C@H]1[C@@H](OCc2ccc(-c3ccc(CO)cc3)cc2)CC[C@@H]1N1CCCCCC1 | 3.98
O=C(O)CC/C=C\CO[C@H]1C(OCc2ccc(-c3ccc(CO)cc3)cc2)CC[C@@H]1N1CCCCCC1 (stereo partly drawn) | 3.16

Lab note: Thromboxane A2 receptor (Homo sapiens) assay, enter Kb for CS(=O)(=O)Nc1ccccc1-c1ccc(CO[C@H]2CC[C@H](N3CCCCCC3)[C@H]2OC/C=C\CCC(=O)O)cc1 here
6.31

Tell me Kb of O=C(O)CC/C=C\CO[C@H]1[C@@H](OCc2ccc(-c3cccc(CO)c3)cc2)CC[C@@H]1N1CCCCCC1 when tested on Thromboxane A2 receptor (Homo sapiens).
5.01

Check Thromboxane A2 receptor (Homo sapiens) data and give Kb for NC(=O)c1ccccc1-c1ccc(COC2CC[C@H](N3CCCCCC3)[C@H]2OC/C=C\CCC(=O)O)cc1 (stereo partly drawn) .
15.8

Determine reported Kb for CC(=O)NCc1ccc(-c2ccc(COC3CC[C@H](N4CCCCCC4)[C@H]3OC/C=C\CCC(=O)O)cc2)cc1 (stereo partly drawn) ; test system: Thromboxane A2 receptor (Homo sapiens).
2.51

Report the value of Kb obtained on Thromboxane A2 receptor (Homo sapiens) for O=C(O)CC/C=C\CO[C@H]1C(OCc2ccc(-c3ccccc3O)cc2)CC[C@@H]1N1CCCCCC1 (stereo partly drawn) .
15.8

Name the value of Kb reported for CNS(=O)(=O)Cc1ccccc1-c1ccc(COC2CC[C@H](N3CCCCCC3)[C@H]2OC/C=C\CCC(=O)O)cc1 (stereo partly drawn) when tested on Thromboxane A2 receptor (Homo sapiens).
7.94

meta.source: ChEMBL document CHEMBL1125965
